system: Bacillus subtilis; assay: Antibacterial activity against Bacillus subtilis NCIM 2063 after 24 hrs by microdilution susceptibility method; assay type: functional; conditions: NCIM 2063, 24 h
OBSERVED_PROPERTY: MIC (µg/mL)
Entry rule: numbers only, all in µg/mL.

Consider the following illustrative entries.
Nn1c(CS(=O)(=O)Cc2ccc(Cl)cc2)nnc1-c1ccccc1 : 100
O=S(=O)(Cc1ccc(Cl)cc1)Cc1nnc(-c2ccccc2Cl)s1 : 100
Nn1c(CS(=O)(=O)c2ccc(Cl)cc2)nnc1-c1ccccc1 : 400
Nn1c(CS(=O)(=O)c2ccccc2)nnc1-c1ccccc1 : 400
Nn1c(CS(=O)(=O)Cc2ccccc2)nnc1-c1ccccc1Cl : 200

--- query ---
Q) May I ask what MIC has been recorded for O=S(=O)(Cc1nnc(-c2ccccc2)s1)c1ccccc1 ?
A) 400

###

test system: Proteus vulgaris; assay: Antibacterial activity against Proteus vulgaris NCIM 2027 at 200 ug/disk after 24 hrs by agar disc-diffusion method; type: functional; conditions: NCIM 2027, 24 h, read-out: DIZ
Record rule met whenever zone of inhibition at 200 µg/disc is at 20 mm or higher; record rule not met when lower.

O=S(=O)(Cc1nnc(-c2ccccc2Cl)s1)c1ccccc1 : rule not met
O=S(=O)(Cc1ccc(Cl)cc1)Cc1nnc(-c2ccccc2)s1 : rule met
Nn1c(CS(=O)(=O)Cc2ccc(Cl)cc2)nnc1-c1ccccc1 : rule met
O=S(=O)(Cc1ccc(Cl)cc1)Cc1nnc(-c2ccccc2Cl)s1 : rule met
Nn1c(CS(=O)(=O)Cc2ccccc2)nnc1-c1ccccc1 : rule met
Nn1c(CS(=O)(=O)c2ccccc2)nnc1-c1ccccc1 : rule not met
O=S(=O)(Cc1nnc(-c2ccccc2)s1)c1ccc(Cl)cc1 : rule not met
O=S(=O)(Cc1nnc(-c2ccccc2)o1)c1ccc(Cl)cc1 : rule not met
O=S(=O)(Cc1ccc(Cl)cc1)Cc1nnc(-c2ccccc2Cl)o1 : rule not met
O=S(=O)(Cc1nnc(-c2ccccc2Cl)s1)c1ccc(Cl)cc1 : rule met

Q) // inclusive: zone of inhibition at 200 µg/disc at least 20 mm? input: O=S(=O)(Cc1ccccc1)Cc1nnc(-c2ccccc2)o1
A) rule not met

Q) // inclusive: zone of inhibition at 200 µg/disc at least 20 mm? input: O=S(=O)(Cc1ccccc1)Cc1nnc(-c2ccccc2Cl)o1
A) rule not met

Q) // inclusive: zone of inhibition at 200 µg/disc at least 20 mm? input: O=S(=O)(Cc1nnc(-c2ccccc2Cl)o1)c1ccccc1
A) rule not met

Q) // inclusive: zone of inhibition at 200 µg/disc at least 20 mm? input: O=C(N[C@H](CO)[C@H](O)c1ccc([N+](=O)[O-])cc1)C(Cl)Cl [CHLORAMPHENICOL]
A) rule met

Q) // inclusive: zone of inhibition at 200 µg/disc at least 20 mm? input: Nn1c(CS(=O)(=O)Cc2ccccc2)nnc1-c1ccccc1Cl
A) rule met

Q) // inclusive: zone of inhibition at 200 µg/disc at least 20 mm? input: Nn1c(CS(=O)(=O)c2ccc(Cl)cc2)nnc1-c1ccccc1
A) rule met

Q) // inclusive: zone of inhibition at 200 µg/disc at least 20 mm? input: Nn1c(CS(=O)(=O)Cc2ccc(Cl)cc2)nnc1-c1ccccc1Cl
A) rule met

###

tested on: Fusarium solani; assay: Antifungal activity against Fusarium solani NCIM 1330 at 100 ug/disk after 48 hrs by agar disc-diffusion method; type: functional; details: NCIM 1330, 48 h, read-out: DIZ
Record TRUE whenever zone of inhibition at 100 µg/disc is at 20 mm or higher; record FALSE when lower.

Nn1c(CS(=O)(=O)c2ccc(Cl)cc2)nnc1-c1ccccc1 : TRUE
Nn1c(CS(=O)(=O)c2ccccc2)nnc1-c1ccccc1Cl : TRUE
CC(=O)N1CCN(c2ccc(OCC3COC(Cn4ccnc4)(c4ccc(Cl)cc4Cl)O3)cc2)CC1 (stereo unspecified) : TRUE
O=S(=O)(Cc1nnc(-c2ccccc2Cl)s1)c1ccccc1 : FALSE
O=S(=O)(Cc1ccc(Cl)cc1)Cc1nnc(-c2ccccc2)o1 : FALSE

Now, please, on to the next compound.
Q) // inclusive: zone of inhibition at 100 µg/disc at least 20 mm? input: Nn1c(CS(=O)(=O)Cc2ccccc2)nnc1-c1ccccc1Cl
A) TRUE

###

tested on: Fusarium solani; experiment: Antifungal activity against Fusarium solani NCIM 1330 at 200 ug/disk after 48 hrs by agar disc-diffusion method; assay type: functional; conditions: NCIM 1330, 48 h, read-out: DIZ
Below is a list of entries, each paired with its recorded zone of inhibition at 200 µg/disc value.
Entry rule: numbers only, all in mm.

Q) May I ask what zone of inhibition at 200 µg/disc has been recorded for O=S(=O)(Cc1ccc(Cl)cc1)Cc1nnc(-c2ccccc2Cl)o1 ?
A) 22

###

test system: Bacillus subtilis; assay: Antibacterial activity against Bacillus subtilis NCIM 2063 at 100 ug/disk after 24 hrs by agar disc-diffusion method; format: functional; conditions: NCIM 2063, 24 h, read-out: DIZ
Below is a list of entries, each paired with its recorded zone of inhibition at 100 µg/disc value.
Entry rule: numbers only, all in mm.

Consider the following illustrative entries.
O=S(=O)(Cc1ccccc1)Cc1nnc(-c2ccccc2)o1 : 14
O=S(=O)(Cc1nnc(-c2ccccc2Cl)o1)c1ccc(Cl)cc1 : 16
Nn1c(CS(=O)(=O)c2ccccc2)nnc1-c1ccccc1Cl : 19
O=S(=O)(Cc1ccccc1)Cc1nnc(-c2ccccc2)s1 : 22
O=C(N[C@H](CO)[C@H](O)c1ccc([N+](=O)[O-])cc1)C(Cl)Cl [CHLORAMPHENICOL] : 38

Q) Query the reported zone of inhibition at 100 µg/disc for Bacillus subtilis; item: Nn1c(CS(=O)(=O)Cc2ccc(Cl)cc2)nnc1-c1ccccc1
A) 28

Q) Query the reported zone of inhibition at 100 µg/disc for Bacillus subtilis; item: Nn1c(CS(=O)(=O)c2ccccc2)nnc1-c1ccccc1
A) 14

Q) Query the reported zone of inhibition at 100 µg/disc for Bacillus subtilis; item: O=S(=O)(Cc1ccccc1)Cc1nnc(-c2ccccc2Cl)o1
A) 15

###

tested on: Fusarium solani; test: Antifungal activity against Fusarium solani NCIM 1330 at 100 ug/disk after 48 hrs by agar disc-diffusion method; type: functional; conditions: NCIM 1330, 48 h, read-out: DIZ
OBSERVED_PROPERTY: zone of inhibition at 100 µg/disc (mm)
Entry rule: numbers only, all in mm.

Q) May I ask what zone of inhibition at 100 µg/disc has been recorded for O=S(=O)(Cc1nnc(-c2ccccc2)o1)c1ccccc1 ?
A) 15

Q) May I ask what zone of inhibition at 100 µg/disc has been recorded for O=S(=O)(Cc1nnc(-c2ccccc2)s1)c1ccc(Cl)cc1 ?
A) 18

Q) May I ask what zone of inhibition at 100 µg/disc has been recorded for Nn1c(CS(=O)(=O)Cc2ccccc2)nnc1-c1ccccc1 ?
A) 19

Q) May I ask what zone of inhibition at 100 µg/disc has been recorded for O=S(=O)(Cc1ccc(Cl)cc1)Cc1nnc(-c2ccccc2)s1 ?
A) 24

Q) May I ask what zone of inhibition at 100 µg/disc has been recorded for Nn1c(CS(=O)(=O)Cc2ccc(Cl)cc2)nnc1-c1ccccc1 ?
A) 24

Q) May I ask what zone of inhibition at 100 µg/disc has been recorded for O=S(=O)(Cc1nnc(-c2ccccc2Cl)o1)c1ccccc1 ?
A) 16

###

test system: Bacillus subtilis; assay: Antibacterial activity against Bacillus subtilis NCIM 2063 at 100 ug/disk after 24 hrs by agar disc-diffusion method; assay type: functional; conditions: NCIM 2063, 24 h, read-out: DIZ
Below is a list of entries, each paired with its recorded zone of inhibition at 100 µg/disc value.
Entry rule: numbers only, all in mm.

Consider the following illustrative entries.
O=S(=O)(Cc1ccc(Cl)cc1)Cc1nnc(-c2ccccc2Cl)s1 : 27
O=S(=O)(Cc1nnc(-c2ccccc2)s1)c1ccccc1 : 15
Nn1c(CS(=O)(=O)c2ccc(Cl)cc2)nnc1-c1ccccc1 : 17
O=S(=O)(Cc1nnc(-c2ccccc2)s1)c1ccc(Cl)cc1 : 18
O=S(=O)(Cc1nnc(-c2ccccc2Cl)s1)c1ccc(Cl)cc1 : 19

Q) May I ask what zone of inhibition at 100 µg/disc has been recorded for O=S(=O)(Cc1nnc(-c2ccccc2Cl)s1)c1ccccc1 ?
A) 15

Q) May I ask what zone of inhibition at 100 µg/disc has been recorded for O=S(=O)(Cc1nnc(-c2ccccc2)o1)c1ccccc1 ?
A) 11

Q) May I ask what zone of inhibition at 100 µg/disc has been recorded for O=S(=O)(Cc1ccc(Cl)cc1)Cc1nnc(-c2ccccc2)o1 ?
A) 18

Q) May I ask what zone of inhibition at 100 µg/disc has been recorded for O=S(=O)(Cc1nnc(-c2ccccc2)o1)c1ccc(Cl)cc1 ?
A) 15

Q) May I ask what zone of inhibition at 100 µg/disc has been recorded for Nn1c(CS(=O)(=O)Cc2ccccc2)nnc1-c1ccccc1 ?
A) 23

Q) May I ask what zone of inhibition at 100 µg/disc has been recorded for Nn1c(CS(=O)(=O)c2ccc(Cl)cc2)nnc1-c1ccccc1Cl ?
A) 16
